test system: OE19 (Esophageal Adenocarcinoma); experiment: combination Emax (second highest fraction inhibited in the dose matrix, 72 h); higher = more inhibition; extreme values may be limits of the assay
PROPERTY LABEL: combination Emax
No unit in the answer, only the number.

Example entries and their recorded answers appear below.
{"MOLECULE": "CN(C)CCCOc1ccc(-c2ccc3ncc4c(c3c2)n(C2CCOCC2)c(=O)n4C)cn1 [AZD0156] + O=C(c1cc(Cc2n[nH]c(=O)c3ccccc23)ccc1F)N1CCN(C(=O)C2CC2)CC1 [Olaparib] (first compound max 3 µM, partner max 3 µM)", "SYSTEM UNDER TEST": "OE19 (Esophageal Adenocarcinoma)", "combination Emax": 0.512}
{"MOLECULE": "COc1cccc(OCCCN)c1-c1cc(Nc2cnc(C#N)cn2)n[nH]1 [Prexasertib] + C=CCn1c(=O)c2cnc(Nc3ccc(N4CCN(C)CC4)cc3)nc2n1-c1cccc(C(C)(C)O)n1 [AZD1775] (first compound max 1 µM, partner max 1 µM)", "SYSTEM UNDER TEST": "OE19 (Esophageal Adenocarcinoma)", "combination Emax": 0.943}
{"MOLECULE": "COc1cccc(OCCCN)c1-c1cc(Nc2cnc(C#N)cn2)n[nH]1 [Prexasertib] + C[C@@H]1COCCN1C2=NC(=NC(=C2)C3(CC3)[S@](=N)(=O)C)C4=C5C=CNC5=NC=C4 [AZD6738] (first compound max 1 µM, 7x7, partner max 10 µM)", "SYSTEM UNDER TEST": "OE19 (Esophageal Adenocarcinoma)", "combination Emax": 0.935}

Consider the molecule shown here: COc1cccc(OCCCN)c1-c1cc(Nc2cnc(C#N)cn2)n[nH]1 [Prexasertib] + CN(C)CCCOc1ccc(-c2ccc3ncc4c(c3c2)n(C2CCOCC2)c(=O)n4C)cn1 [AZD0156] (first compound max 1 µM, 7x7, partner max 1 µM) What is its recorded combination Emax?
0.889

Reported combination Emax, molecule CC(=O)c1c(C)c2cnc(Nc3ccc(N4CCNCC4)cn3)nc2n(C2CCCC2)c1=O [Palbociclib] + CN(CC[C@H](CSC1=CC=CC=C1)NC2=C(C=C(C=C2)S(=O)(=O)NC(=O)C3=CC=C(C=C3)N4CCC(CC4)[C@H](C5=CC=CC=C5C6=CC=C(C=C6)Cl)O)S(=O)(=O)C(F)(F)F)CCO [AZD4320] (first compound max 10 µM, 7x7, partner max 1 µM) : ____
0.467

Consider the molecule shown here: CN(CCO)CC[C@H](CSc1ccccc1)Nc1ccc(S(=O)(=O)NC(=O)c2ccc(N3CCC([C@@H](O)c4ccccc4-c4ccc(Cl)cc4)CC3)cc2)cc1S(=O)(=O)C(F)(F)F [AZD4320] + C1CN(CCC1(C(=O)N[C@@H](CCO)C2=CC=C(C=C2)Cl)N)C3=NC=NC4=C3C=CN4 [Capivasertib] (first compound max 1 µM, 7x7, partner max 3 µM) What is its recorded combination Emax?
0.333

Sample COc1cccc(OCCCN)c1-c1cc(Nc2cnc(C#N)cn2)n[nH]1 [Prexasertib] + O=C(c1cc(Cc2n[nH]c(=O)c3ccccc23)ccc1F)N1CCN(C(=O)C2CC2)CC1 [Olaparib] (first compound max 1 µM, 7x7, partner max 10 µM) — what was its combination Emax?
0.648
